# reported melting point; entries follow

Examples from the recorded data:
compound=COc1cc2c(Nc3ccc(NC(=O)C(c4ccccc4)c4ccccc4)cc3F)ncnc2cc1OCC1CCN(C)CC1 experimental_readout="melting point" result="257 to 257.2 °C"
compound=COc1cc2c(Nc3ccccc3P(C)(C)=O)ncnc2cc1OCC1CCN(C)CC1 experimental_readout="melting point" result="150.5 to 150.8 °C"
compound="COc1cc2c(Nc3ccc(NC(=O)C(c4ccccc4)C(C)C)cc3F)ncnc2cc1OCC1CCN(C)CC1 (centres unmarked)" experimental_readout="melting point" result="196 to 196.2 °C"

Q: GET /values?readout=melting point&item= CN1CCC(COc2ccc3c(Nc4ccccc4P(C)(C)=O)ncnc3c2)CC1
A: 170.7 to 172.4 °C

Q: GET /values?readout=melting point&item= COc1cc2c(Nc3ccc(NC(=O)C(C)c4ccccc4)cc3F)ncnc2cc1OCC1CCN(C)CC1 (centres unmarked)
A: 199.6 to 199.8 °C
